Target: Calcium-activated potassium channel subunit alpha-1 (Mus musculus)
Assay: Percent opening of mouse maxi-K channel expressed in xenopus oocyte at a concentration of 20 umolar under voltage clamp.
Type: functional
Conditions: Xenopus laevis oocytes
readout: Activity (%)

{"columns": ["given_smiles", "number"],
 "data": [
  ["Oc1ccc(-n2c(O)nnc2-c2ccc(C(F)(F)F)cc2)cc1Cl", 99],
  ["Oc1ccc(Cl)c(-n2c(O)nnc2-c2ccc(C(F)(F)F)cc2)c1", 101],
  ["Oc1ccc(Cl)cc1-c1nnc(O)n1-c1ccc(C(F)(F)F)cc1", 123],
  ["Oc1ccc(Cl)cc1-n1c(O)nnc1-c1cccc(C(F)(F)F)c1", 138],
  ["Oc1ccc(Cl)cc1-n1c(O)nnc1-c1ccc(C(F)(F)F)cc1", 121],
  ["Oc1ccc(Cl)cc1-n1cncc1-c1ccc(C(F)(F)F)cc1", 126],
  ["O=c1[nH]c2cc(C(F)(F)F)ccc2n1-c1cc(Cl)ccc1O", 132],
  ["O=c1[nH]c2cc(C(F)(F)F)ccc2n1-c1cc(C(F)(F)F)ccc1O", 116],
  ["Oc1ccc(Cl)cc1-n1cnnc1-c1ccc(C(F)(F)F)cc1", 102],
  ["Oc1ccc(Cl)cc1-n1c(O)nnc1-c1ccccc1", 101],
  ["O=c1onc(-c2ccc(C(F)(F)F)cc2)n1Cc1cc(Cl)ccc1O", 101],
  ["Oc1ccc(Cl)cc1-n1c(O)nnc1-c1ccc(F)cc1", 118],
  ["Oc1ccc(Cl)cc1-c1nnc(O)n1Cc1ccc(C(F)(F)F)cc1", 128]
]}

---

Target: Calcium-activated potassium channel subunit alpha-1 (Mus musculus) (UniProt Q08460)
Sequence (Q08460 whole entry): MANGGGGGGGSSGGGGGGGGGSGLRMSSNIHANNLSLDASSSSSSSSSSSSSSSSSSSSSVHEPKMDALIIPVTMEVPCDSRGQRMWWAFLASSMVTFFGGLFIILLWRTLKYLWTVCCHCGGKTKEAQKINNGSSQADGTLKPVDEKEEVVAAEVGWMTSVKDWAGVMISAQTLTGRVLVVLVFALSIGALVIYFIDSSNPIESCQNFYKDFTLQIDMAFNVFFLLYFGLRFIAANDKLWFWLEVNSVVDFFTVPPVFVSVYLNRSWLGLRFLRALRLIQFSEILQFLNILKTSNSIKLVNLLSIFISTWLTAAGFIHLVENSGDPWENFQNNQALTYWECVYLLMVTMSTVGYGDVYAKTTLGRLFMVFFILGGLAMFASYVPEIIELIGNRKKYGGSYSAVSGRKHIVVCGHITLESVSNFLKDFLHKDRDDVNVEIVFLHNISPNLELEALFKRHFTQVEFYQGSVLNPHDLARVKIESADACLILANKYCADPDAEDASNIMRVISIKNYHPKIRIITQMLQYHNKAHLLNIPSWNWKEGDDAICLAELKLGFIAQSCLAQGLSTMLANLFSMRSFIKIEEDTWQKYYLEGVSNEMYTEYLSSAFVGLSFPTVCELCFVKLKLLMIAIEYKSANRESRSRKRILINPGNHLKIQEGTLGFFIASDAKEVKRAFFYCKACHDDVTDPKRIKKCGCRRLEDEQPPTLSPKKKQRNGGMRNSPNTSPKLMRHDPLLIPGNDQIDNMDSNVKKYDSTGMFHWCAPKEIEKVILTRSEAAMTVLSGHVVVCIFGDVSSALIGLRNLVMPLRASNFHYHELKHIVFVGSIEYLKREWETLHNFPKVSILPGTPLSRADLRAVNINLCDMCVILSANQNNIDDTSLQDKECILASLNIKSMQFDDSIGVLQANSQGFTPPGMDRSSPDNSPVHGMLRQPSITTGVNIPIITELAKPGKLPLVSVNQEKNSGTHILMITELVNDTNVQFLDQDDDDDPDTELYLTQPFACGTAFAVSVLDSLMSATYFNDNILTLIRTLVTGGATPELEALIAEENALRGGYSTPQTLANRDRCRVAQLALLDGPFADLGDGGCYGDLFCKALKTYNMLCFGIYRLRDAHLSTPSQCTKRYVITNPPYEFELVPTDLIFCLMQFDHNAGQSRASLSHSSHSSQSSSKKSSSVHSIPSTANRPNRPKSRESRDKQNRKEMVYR
Experiment: Percent opening of mouse maxi-K channel expressed in xenopus oocyte at a concentration of 20 umolar under voltage clamp.
Type: functional
Conditions: Xenopus laevis oocytes

{"columns": ["given_smiles", "Activity [%]"],
 "data": [
  ["Oc1ccc(Cl)cc1-n1c(O)nnc1-c1cc(C(F)(F)F)cc(C(F)(F)F)c1", 159],
  ["Oc1ccc(Cl)cc1Cc1nccn1-c1ccc(C(F)(F)F)cc1", 105],
  ["Nc1nnc(-c2ccc(C(F)(F)F)cc2)n1-c1cc(Cl)ccc1O", 117],
  ["Oc1ccc(Cl)cc1Cc1nnc(O)n1-c1ccc(C(F)(F)F)cc1", 84],
  ["Cn1nc(-c2ccc(C(F)(F)F)cc2)n(-c2cc(Cl)ccc2O)c1=O", 93],
  ["Oc1ccc(Cl)cc1-n1c(O)nnc1Cc1ccc(C(F)(F)F)cc1", 125],
  ["Oc1ccc(Cl)cc1-n1c(S)nnc1-c1ccc(C(F)(F)F)cc1", 128],
  ["Oc1ccc(Cl)cc1-n1c(O)nnc1-c1ccccc1C(F)(F)F", 107],
  ["O=c1onc(-c2cc(C(F)(F)F)cc(C(F)(F)F)c2)n1-c1cc(Cl)ccc1O", 92],
  ["Oc1ccc(Cl)cc1Cn1c(O)nnc1-c1ccc(C(F)(F)F)cc1", 109]
]}

Values compiled from ChEMBL document CHEMBL1135993.
